Several publications report pIC50 on UniProtKB P22455; those values are gathered here.
pIC50: −log10 of the molar value.
Measured Endpoint: pIC50

In the examples that follow, each entry is paired with its recorded pIC50.
>>> measured_value("C=CC(=O)Nc1cn(C)nc1Nc1ncc2cc(-c3c(Cl)c(OC)cc(OC)c3Cl)nc(NCC3CC3)c2n1")
7.62
>>> measured_value("COc1cc(C)cc2cc(-c3cc(C4CCN(C(=O)CC#N)C4)n4ncnc(N)c34)sc12 (single isomer, unassigned)")
8.21

[a] C=CC(=O)N[C@H]1COC[C@H]1Nc1ncc2cc(-c3c(Cl)c(OC)cc(OC)c3Cl)nc(N3CC(OC)C3)c2n1
[b] COc1cc(OC)cc(N(CCNC(C)C)c2ccc3nnc(-c4cnn(C)c4)cc3c2)c1
Request: Param pair: a , b . Output: the one whose pIC50 is numerically greater. Please respond with the label that marks your chosen entry.
Result: a
(a: 8.32, b: 7.96)

###

Several publications report IC50 on Fibroblast growth factor receptor 4 (Homo sapiens, UniProt P22455); those values are gathered here.
Measured Endpoint: IC50 (nM)

>>> measured_value("CN1CCN(Cc2ccc(N(C)C(=O)Nc3cc(NCC4CCCO4)c(C#N)cn3)nc2C=O)C(=O)C1 (stereo not shown)")
8

[1] CO[C@@H]1COCC1Nc1cc(NC(=O)N2CCCc3cc(CN4CCCCOC4=O)c(C=O)nc32)ncc1C#N (stereo partly shown)
[2] COCCNc1cc(NC(=O)N2c3nc(C=O)c(CN4CCCCOC4=O)cc3C3(F)CC2C3)ncc1C#N
[3] C=CC(=O)N1CCCC(Nc2ncc3cc(-c4c(Cl)c(OC)cc(OC)c4Cl)ccc3n2)C1 (stereo not shown)
[4] CC(C)Oc1cc(NC(=O)N(C)c2ccc(CN3CCCC3=O)c(C=O)n2)ncc1C#N
Request: Form: Sort by [IC50] Order [ ascending ] Rank the items, then write their labels in that order.
Result: 4, 1, 2, 3
(4: 0.7 nM, 1: 1.12 nM, 2: 3.3 nM, 3: 153 nM)

###

Several publications report IC50 on UniProt P22455; those values are gathered here.

>>> measured_value("C=CC(=O)N[C@H]1COC[C@H]1Nc1ncc2cc(-c3c(Cl)c(OC)cc(OC)c3Cl)nc(N3CCC(OC)C3)c2n1 (stereo partly drawn)")
"7.4 nM"
>>> measured_value("C=CC(=O)Nc1cc(N2CCC(N3CCN(C(C)=O)CC3)CC2)ccc1Nc1ncc(C#N)c(Nc2ccccc2OC(C)C)n1")
"10 to 50 nM"
>>> measured_value("C=CC(=O)Nc1cc(N2CCC(N3CCN(C)CC3)CC2)c(F)cc1Nc1ncc(C#N)c(Nc2ccccc2OC(C)C)n1")
"10 to 50 nM"

Request: Data request, read-out IC50, for `C=CC(=O)N[C@@H]1CCOC[C@@H]1Nc1ncc2cc(-c3c(Cl)c(OC)cc(OC)c3Cl)ccc2n1`
Result: 100 to 1000 nM

Request: Then this compound: `C=CC(=O)Nc1cc(N2CCC(N3CCCCC3)CC2)c(C)cc1Nc1ncc(C#N)c(Nc2ccccc2OC(C)C)n1`
Result: 10 to 50 nM

Request: Then this compound: `C=CC(=O)Nc1cc(N2CCN(CC)CC2)ccc1Nc1ncc(C#N)c(Nc2cc(F)ccc2OC(C)C)n1`
Result: 50 to 100 nM

Request: Then this compound: `C#CC(=O)N[C@H]1CCC[C@H]1Nc1ncc2cc(-c3cc(C(=O)NC4CC4)c(F)cc3Cl)ccc2n1`
Result: 10 to 100 nM

Request: Then this compound: `C=CC(=O)N[C@H]1COC[C@H]1Nc1ncc2cc(-c3c(Cl)c(OC)cc(OC)c3Cl)nc(NCC3CCCC3)c2n1`
Result: 66.9 nM

Request: Then this compound: `COCCNc1cc(NC(=O)N2c3nc(C=O)ccc3C3(O)CC2C3)ncc1C#N`
Result: 2.2 nM

Request: Then this compound: `COCCNc1cc(NC(=O)N2CCCc3cc(CN4C(=O)OCC45CC5)c(C=O)nc32)ncc1C#N`
Result: 4.41 nM

Request: Then this compound: `C=CC(=O)N1CC=C(c2cc3c(Oc4ccc(NC(=O)NC5CC5)c(Cl)c4)ccnc3cc2OC2CCCC2)CC1`
Result: < 5 nM

Request: Then this compound: `CCN(C(=O)Nc1cc(NC(C)C)c(C#N)cn1)c1ccc(-c2cnn(C)c2)c(C=O)n1`
Result: 5.6 nM

Request: Then this compound: `C=CC(=O)N[C@H]1CN(S(=O)(=O)CC)C[C@H]1Nc1ncc2cc(-c3c(Cl)c(OC)cc(OC)c3Cl)ccc2n1`
Result: < 10 nM

Request: Then this compound: `C=CC(=O)Nc1cc(N2CCN(CC)CC2)ccc1Nc1ncc(C#N)c(Nc2cc(C(F)(F)F)ccc2OC(C)C)n1`
Result: 100 to 1000 nM

Request: Then this compound: `C=CC(=O)N[C@@H]1CCCC[C@@H]1Nc1ncc2cc(-c3c(Cl)c(OC)cc(OC)c3Cl)ccc2n1`
Result: > 1000 nM

###

Several publications report pIC50 on Fibroblast growth factor receptor 4 (Homo sapiens, UniProt P22455); those values are gathered here.
pIC50: −log10 of the molar value.
Measured Endpoint: pIC50

[I] COCCNc1cc(NC(=O)N2c3nc(C=O)ccc3C3(N(C)C(=O)c4cnn(C)c4)CC2C3)ncc1C#N
[II] CO[C@@H]1CCC[C@H]1Nc1cc(NC(=O)N2c3nc(C=O)c(CN4CCN(C)CC4=O)cc3C3CC2C3)ncc1C#N (relative stereo)
Request: Lower value for measured pIC50? Options: I , II Please respond with the label that marks your chosen entry.
Result: I
(I: 8.49, II: 9.52)

[A] COc1cc(OC)c(F)c(COc2cnc(NC(=O)N3CCCc4ccc(C=O)nc43)nc2)c1F
[B] C=CC(=O)N1CC[C@@H](c2cc(-c3nc4cc(OC)cc(OC)c4s3)c3c(N)ncnn23)C1
[C] COCCNc1cc(NC(=O)N2CCCc3cc(CN4C(=O)COCC45CC5)c(C=O)nc32)ncc1C#N
[D] C=CC(=O)N[C@H]1COC[C@H]1Nc1ncc2cc(-c3c(F)c(OC)cc(OC)c3F)nc(-c3cnn(C)c3)c2n1
[E] C=CC(=O)N[C@H]1COC[C@H]1Nc1ncc2cc(-c3c(Cl)c(OC)cc(OC)c3Cl)nc(N)c2n1
Request: Form: Sort by [pIC50] Order [ ascending ] Rank the items, then write their labels in that order.
Result: B, E, D, C, A
(B: 6.34, E: 6.80, D: 8.38, C: 8.77, A: 9.10)

###

Several publications report pIC50 on Fibroblast growth factor receptor 4 (Homo sapiens); those values are gathered here.
pIC50: −log10 of the molar value.
Measured Endpoint: pIC50

>>> measured_value("COCCNc1cc(NC(=O)N(C)c2ccc(CN3CCCC3=O)c(C=O)n2)ncc1C#N")
8.37

[a] CONc1cc(NC(=O)N2CCCc3cc(CN4CCOCC4=O)c(C=O)nc32)ncc1C#N
[b] C=CC(=O)N[C@H]1COC[C@H]1Nc1ncc2cc(-c3c(Cl)c(OC)cc(OC)c3Cl)nc(NC3CCOC3)c2n1 (stereo partly shown)
[c] COC[C@@H](C)Nc1cc(NC(=O)N2c3nc(C=O)c(CN4CCN(C)CC4=O)cc3C3CC2C3)ncc1C#N
Request: Highest pIC50 first, then in falling order down to the smallest. Rank the items, then write their labels in that order.
Result: c, a, b
(c: 9.22, a: 8.56, b: 8.09)

###

Several publications report IC50 on UniProt:P22455; those values are gathered here.

>>> measured_value("C=CC(=O)N[C@H]1CCOC[C@H]1Nc1ncc2cc(-c3c(F)c(OC)cc(OC)c3F)nc(N3CC(C)(O)C3)c2n1")
"5.3 nM"

Request: Data request, read-out IC50, for `COC[C@@H](C)Oc1cc(NC(=O)N2CCCc3cc(CN(C)C(=O)[C@H]4CCCO4)c(C=O)nc32)ncc1C#N`
Result: 2.53 nM

Request: Then this molecule: `CN(C(=O)Nc1ccc(C#N)cn1)c1ccc(CN2CCCC2=O)c(C=O)n1`
Result: 78 nM

Request: Then this molecule: `C=CC(=O)Nc1cc(N2CCN(CC)CC2)ccc1Nc1ncc(C#N)c(Nc2cc(C#N)ccc2OC(C)C)n1`
Result: 50 to 100 nM

Request: Then this molecule: `C=CC(=O)N[C@H]1CCOC[C@H]1Nc1ncc2cc(-c3c(F)c(OC)cc(OC)c3F)nc(N3CC(C)(OC)C3)c2n1`
Result: 8.5 nM

Request: Then this molecule: `C=CC(=O)Nc1cccc(-c2ncc3cc(-c4c(Cl)c(OC)cc(OC)c4Cl)cc(OC)c3n2)c1`
Result: 100 to 1000 nM

Request: Then this molecule: `C=CC(=O)Nc1ccc(F)c(-c2cc3c(cn2)cc(-c2cc(OC)cc(OC)c2)c(=O)n3C(C)C)c1`
Result: 10 to 100 nM

Request: Then this molecule: `C=CC(=O)Nc1cc(N2CCN(C)CC2)c(C)cc1Nc1ncc(C#N)c(Nc2ccccc2OC(C)C)n1`
Result: 50 to 100 nM

Request: Then this molecule: `C#CC(=O)N[C@H]1CCC[C@H]1Nc1ncc2cc(-c3cc(C(=O)NOC)c(F)cc3Cl)ccc2n1`
Result: 10 to 100 nM

Request: Then this molecule: `C=CC(=O)N[C@H]1CCOC[C@H]1Nc1ncc2cc(-c3c(Cl)c(OC)cc(OC)c3Cl)cc(F)c2n1`
Result: < 10 nM

Request: Then this molecule: `C=CC(=O)N[C@H]1CN(C(=O)C2CC2)C[C@H]1Nc1ncc2cc(-c3c(Cl)c(OC)cc(OC)c3Cl)ccc2n1`
Result: < 10 nM

Request: Then this molecule: `C=CC(=O)Nc1cc(N2CCN(C)CC2)ccc1Nc1ncc(C#N)c(Nc2ccccc2OC(C)C)n1`
Result: 10 to 50 nM

Request: Then this molecule: `COCCOc1ccc(Nc2ncc(F)c(NCCNS(=O)(=O)c3c(F)c(F)c(F)c(F)c3F)n2)cc1`
Result: > 2000 nM

Request: Then this molecule: COc1cc(C)cc2cc(-c3cc(C4CCN(C(=O)/C=C/CN(C)C)C4)n4ncnc(N)c34)sc12 (single isomer, unassigned)
Result: 8.7 nM
